- TARGET_UNDER_TEST: Adrenergic receptor alpha (Rattus norvegicus) (UniProt P15823+P23944+P43140+P22086+P19328+P22909)
- EXPERIMENTAL_DETAILS: Selectivity ratio is the antilog of the difference between pA2 values at alpha1- and alpha2- adrenoceptors
REPORTED_ENDPOINT: Ratio
Give the figure by itself; no unit, no explanation.

// below: answered compounds
COc1cccc(OC)c1OCCNC[C@H]1Oc2ccccc2O[C@@H]1c1ccc(Cl)cc1 :: 1000
COc1cccc(OC)c1OCCNC[C@H]1Oc2ccccc2O[C@@H]1c1ccc(OC(C)=O)cc1 :: 2600
COc1cccc(OC)c1OCCNCC1COc2ccccc2O1 (stereo not given) :: 740
COc1cccc(OC)c1OCCNC[C@H]1Oc2ccccc2O[C@H]1c1ccc(Cl)cc1 :: 210
COc1cccc(OC)c1OCCNC[C@H]1Oc2ccccc2O[C@@H]1c1ccc(C)cc1 :: 21000

Any idea what Ratio was measured for "COc1cccc(OC)c1OCCNC[C@H]1Oc2ccccc2O[C@@H]1c1ccc(O)cc1" ? 1000

Also need "COc1cccc(OC)c1OCCNC[C@H]1Oc2ccccc2O[C@H]1C(C)C" , thanks. 2

----------
- TARGET_UNDER_TEST: Adrenergic receptor alpha-2 (Rattus norvegicus, UniProt P22086+P19328+P22909)
- EXPERIMENTAL_DETAILS: Tested for the alpha-2-adrenoceptor blocking activity by antagonism of clonidine-induced depression of the twitch responses of the field-stimulated prostatic portion of isolated rat vas deferens; at concentration 30 uM
- Format: functional
REPORTED_ENDPOINT: pA2
// no unit, no text: just the number

Below, 3 molecules whose answers are already recorded.
COc1cccc(OC)c1OCCNC[C@H]1Oc2ccccc2O[C@@H]1c1ccc(O)cc1 :: 4.82
COc1cccc(OC)c1OCCNC[C@H]1Oc2ccccc2O[C@H]1c1ccc(Cl)cc1 :: 4.76
COc1cccc(OC)c1OCCNC[C@H]1Oc2ccccc2O[C@H]1c1ccc(C)cc1 :: 5.24

Sample "COc1cccc(OC)c1OCCNC[C@H]1Oc2ccccc2O[C@@H]1c1ccc(Cl)cc1" — what was its pA2? 5.17

----------
- TARGET_UNDER_TEST: Adrenergic receptor alpha (Rattus norvegicus) (UniProt P15823+P23944+P43140+P22086+P19328+P22909)
- EXPERIMENTAL_DETAILS: Selectivity ratio is the antilog of the difference between pA2 values at alpha1- and alpha2- adrenoceptors
So basically, if Ratio comes in under 600 it's TRUE, and if it's 600 or more it's FALSE.

As a guide, the following entries are already answered.
COc1cccc(OC)c1OCCNC[C@H]1Oc2ccccc2O[C@@H]1C :: TRUE
COc1cccc(OC)c1OCCNC[C@H]1Oc2ccccc2O[C@@H]1C(C)C :: TRUE
COc1cccc(OC)c1OCCNC[C@H]1Oc2ccccc2O[C@H]1c1ccc(C)cc1 :: TRUE
COc1cccc(OC)c1OCCNC[C@H]1Oc2ccccc2O[C@@H]1c1ccccc1 :: FALSE

Confirm or reject: Ratio of "COc1cccc(OC)c1OCCNC[C@H]1Oc2ccccc2O[C@H]1C" lies strictly below 600 FALSE

----------
- TARGET_UNDER_TEST: Adrenergic receptor alpha-2 (Rattus norvegicus, UniProt P22086+P19328+P22909)
- Sequence (P22086 whole entry): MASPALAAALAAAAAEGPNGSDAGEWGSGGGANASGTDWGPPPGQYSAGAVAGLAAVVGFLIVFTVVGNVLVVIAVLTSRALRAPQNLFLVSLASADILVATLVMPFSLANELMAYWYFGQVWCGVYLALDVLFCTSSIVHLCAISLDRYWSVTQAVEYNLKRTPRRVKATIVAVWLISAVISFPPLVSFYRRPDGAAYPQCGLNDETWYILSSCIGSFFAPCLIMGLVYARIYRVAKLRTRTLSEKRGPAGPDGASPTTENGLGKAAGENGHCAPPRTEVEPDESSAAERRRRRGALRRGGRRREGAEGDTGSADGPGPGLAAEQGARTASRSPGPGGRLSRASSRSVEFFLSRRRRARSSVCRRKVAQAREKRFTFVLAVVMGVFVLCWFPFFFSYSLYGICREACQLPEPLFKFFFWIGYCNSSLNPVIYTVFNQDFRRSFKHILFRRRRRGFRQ
- Sequence (P19328 whole entry): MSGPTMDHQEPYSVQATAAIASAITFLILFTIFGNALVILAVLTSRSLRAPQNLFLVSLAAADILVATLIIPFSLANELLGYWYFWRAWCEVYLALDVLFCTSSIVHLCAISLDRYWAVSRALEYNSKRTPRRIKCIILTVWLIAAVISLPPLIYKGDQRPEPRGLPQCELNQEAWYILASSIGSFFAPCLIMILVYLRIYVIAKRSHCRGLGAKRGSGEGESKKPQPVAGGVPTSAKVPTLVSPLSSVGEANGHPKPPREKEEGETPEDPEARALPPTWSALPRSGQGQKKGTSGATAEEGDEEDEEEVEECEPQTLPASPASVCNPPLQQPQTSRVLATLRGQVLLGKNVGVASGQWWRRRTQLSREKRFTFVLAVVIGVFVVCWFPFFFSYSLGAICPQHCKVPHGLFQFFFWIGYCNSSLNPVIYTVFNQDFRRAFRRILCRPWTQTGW
- Sequence (P22909 whole entry): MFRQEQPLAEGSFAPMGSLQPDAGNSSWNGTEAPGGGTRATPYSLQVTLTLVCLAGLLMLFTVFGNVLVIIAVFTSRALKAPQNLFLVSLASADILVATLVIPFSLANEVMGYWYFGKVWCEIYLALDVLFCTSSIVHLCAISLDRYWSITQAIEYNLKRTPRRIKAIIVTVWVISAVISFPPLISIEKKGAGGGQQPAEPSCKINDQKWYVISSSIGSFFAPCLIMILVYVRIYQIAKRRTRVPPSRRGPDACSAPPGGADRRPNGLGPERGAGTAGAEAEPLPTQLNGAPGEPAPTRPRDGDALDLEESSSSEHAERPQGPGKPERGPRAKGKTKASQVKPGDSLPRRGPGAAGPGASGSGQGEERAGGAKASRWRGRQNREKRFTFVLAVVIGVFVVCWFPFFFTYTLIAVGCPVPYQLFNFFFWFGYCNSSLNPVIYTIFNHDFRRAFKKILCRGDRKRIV
- EXPERIMENTAL_DETAILS: Tested for the alpha-2-adrenoceptor blocking activity by antagonism of clonidine-induced depression of the twitch responses of the field-stimulated prostatic portion of isolated rat vas deferens
- Format: functional, tissue-based
Please note: fulfilled applies when pA2 is 6 or greater, and not fulfilled applies otherwise.

COc1cccc(OC)c1OCCNC[C@H]1Oc2ccccc2O[C@@H]1c1ccc(C)cc1 :: not fulfilled
COc1cccc(OC)c1OCCNCC1COc2ccccc2O1 (stereo not drawn) :: fulfilled

Exam item: decide whether the reported pA2 for "COc1cccc(OC)c1OCCNC[C@H]1Oc2ccccc2O[C@@H]1C" is at least 6. fulfilled

Also check "COc1cccc(OC)c1OCCNC[C@H]1Oc2ccccc2O[C@@H]1c1ccc(OC(C)=O)cc1" not fulfilled

Another: "COc1cccc(OC)c1OCCNC[C@H]1Oc2ccccc2O[C@H]1C" not fulfilled

Then this compound: "COc1cccc(OC)c1OCCNC[C@H]1Oc2ccccc2O[C@@H]1c1ccccc1" not fulfilled

Then what about the compound "COc1cccc(OC)c1OCCNC[C@H]1Oc2ccccc2O[C@H]1C(C)C" ? not fulfilled

----------
- TARGET_UNDER_TEST: Adrenergic receptor alpha-1 (Rattus norvegicus, UniProt P15823+P23944+P43140)
- Sequence (P15823 whole entry): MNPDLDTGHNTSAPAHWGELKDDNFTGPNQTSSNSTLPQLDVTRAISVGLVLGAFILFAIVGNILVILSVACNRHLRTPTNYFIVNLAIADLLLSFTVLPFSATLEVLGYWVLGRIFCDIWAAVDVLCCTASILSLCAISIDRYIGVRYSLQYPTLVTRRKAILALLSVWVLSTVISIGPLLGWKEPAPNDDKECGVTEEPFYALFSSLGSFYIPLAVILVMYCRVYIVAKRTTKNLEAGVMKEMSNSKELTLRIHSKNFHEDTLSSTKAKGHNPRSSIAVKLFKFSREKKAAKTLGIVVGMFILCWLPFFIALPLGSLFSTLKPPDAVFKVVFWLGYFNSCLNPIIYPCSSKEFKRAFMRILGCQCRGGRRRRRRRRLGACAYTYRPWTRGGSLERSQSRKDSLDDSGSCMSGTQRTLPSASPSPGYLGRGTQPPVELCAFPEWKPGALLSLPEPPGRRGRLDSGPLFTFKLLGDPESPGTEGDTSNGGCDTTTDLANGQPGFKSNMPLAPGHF
- Sequence (P23944 whole entry): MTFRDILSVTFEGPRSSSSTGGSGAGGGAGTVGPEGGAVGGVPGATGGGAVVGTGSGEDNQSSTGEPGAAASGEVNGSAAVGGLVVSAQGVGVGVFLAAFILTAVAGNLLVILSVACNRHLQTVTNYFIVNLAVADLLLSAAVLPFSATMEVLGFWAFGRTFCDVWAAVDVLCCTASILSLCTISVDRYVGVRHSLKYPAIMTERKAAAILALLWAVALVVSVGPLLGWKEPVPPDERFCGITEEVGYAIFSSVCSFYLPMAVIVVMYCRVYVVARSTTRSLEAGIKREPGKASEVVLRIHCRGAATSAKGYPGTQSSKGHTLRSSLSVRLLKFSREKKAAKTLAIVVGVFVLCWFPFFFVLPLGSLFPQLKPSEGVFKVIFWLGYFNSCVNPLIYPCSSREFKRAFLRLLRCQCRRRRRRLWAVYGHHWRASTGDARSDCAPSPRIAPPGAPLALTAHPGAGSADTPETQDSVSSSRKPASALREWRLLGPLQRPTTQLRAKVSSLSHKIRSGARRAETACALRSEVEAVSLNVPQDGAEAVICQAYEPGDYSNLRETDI
- Sequence (P43140 whole entry): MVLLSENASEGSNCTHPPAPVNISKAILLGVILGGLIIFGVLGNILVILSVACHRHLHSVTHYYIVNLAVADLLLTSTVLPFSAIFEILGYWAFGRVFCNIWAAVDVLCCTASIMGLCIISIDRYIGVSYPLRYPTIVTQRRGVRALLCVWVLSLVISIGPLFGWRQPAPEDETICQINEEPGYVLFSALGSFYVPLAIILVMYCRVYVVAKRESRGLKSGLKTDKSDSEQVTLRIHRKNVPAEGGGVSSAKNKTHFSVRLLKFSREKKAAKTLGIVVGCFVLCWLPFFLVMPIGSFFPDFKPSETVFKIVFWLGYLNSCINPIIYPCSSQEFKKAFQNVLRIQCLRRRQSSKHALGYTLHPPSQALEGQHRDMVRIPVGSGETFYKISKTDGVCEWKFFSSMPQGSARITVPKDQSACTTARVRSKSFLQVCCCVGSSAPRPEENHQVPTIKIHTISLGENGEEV
- EXPERIMENTAL_DETAILS: Ex vivo alpha-1-adrenoceptor blocking activity by antagonism of (-)-norepinephrine -induced contractions of the epididymal portion of isolated rat vas deferens.
- Format: functional
REPORTED_ENDPOINT: pA2
Kindly provide the number alone.

COc1cccc(OC)c1OCCNC[C@H]1Oc2ccccc2O[C@@H]1c1ccccc1 :: 8.39
COc1cccc(OC)c1OCCNC[C@H]1Oc2ccccc2O[C@@H]1C(C)C :: 6.57
COc1cccc(OC)c1OCCNC[C@H]1Oc2ccccc2O[C@@H]1c1ccc(OC(C)=O)cc1 :: 8.12
CCc1ccc([C@H]2Oc3ccccc3O[C@@H]2CNCCOc2c(OC)cccc2OC)cc1 :: 7.82
COc1cccc(OC)c1OCCNC[C@H]1Oc2ccccc2O[C@H]1C :: 8.5

Could you tell me which pA2 is on file for "COc1cccc(OC)c1OCCNC[C@H]1Oc2ccccc2O[C@@H]1c1ccc(C)cc1" ? 8.69

Would you kindly repeat that for "CCc1ccc([C@@H]2Oc3ccccc3O[C@@H]2CNCCOc2c(OC)cccc2OC)cc1" ? 7.23
